Where do these numbers come from? They come from the supplement of paper PMC7877785.

# reported self-splicing fitness (ln); entries follow
# Test details: self-splicing fitness, log relative to wild type (ln ratio); higher = more splicing; Tetrahymena group I intron in knt gene, E. coli kanamycin selection, DiMSum; sequences stand for … in CUCUCU…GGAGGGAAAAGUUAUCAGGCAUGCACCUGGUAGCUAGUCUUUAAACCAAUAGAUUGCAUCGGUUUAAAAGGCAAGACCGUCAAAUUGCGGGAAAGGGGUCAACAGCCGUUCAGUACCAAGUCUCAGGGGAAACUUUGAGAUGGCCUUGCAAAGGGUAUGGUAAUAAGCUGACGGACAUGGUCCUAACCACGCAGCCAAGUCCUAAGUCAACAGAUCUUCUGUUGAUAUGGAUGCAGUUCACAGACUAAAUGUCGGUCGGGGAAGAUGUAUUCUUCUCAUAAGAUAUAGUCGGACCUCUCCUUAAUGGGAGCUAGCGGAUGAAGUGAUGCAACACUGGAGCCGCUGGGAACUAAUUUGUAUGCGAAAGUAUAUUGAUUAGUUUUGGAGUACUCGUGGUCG;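 note: selection with 25 µg/mL kanamycin versus none on LB agar overnight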
# Experimental setup: 30 °C
Result type: self-splicing fitness (ln)

{"columns": ["Chain", "Result type", "Experimental value"],
 "data": [
  ["UCAAAGCAAUAUUACGAGUU", "self-splicing fitness (ln)", -4.25],
  ["UUUUAGCAAUAUUACGACGG", "self-splicing fitness (ln)", -0.13],
  ["ACAGAGCAAUAUUACGUGUG", "self-splicing fitness (ln)", -2.65],
  ["AGUAAGCAAUAUUACGAUGC", "self-splicing fitness (ln)", -2.58],
  ["AGCUAGCAAUAUUACGAAGA", "self-splicing fitness (ln)", -2.45],
  ["CGGCAGCAAUAUUACGGAUC", "self-splicing fitness (ln)", -2.88],
  ["CAGGAGCAAUAUUACGACUC", "self-splicing fitness (ln)", -2.74],
  ["UCGGAGCAAUAUUACGCUAA", "self-splicing fitness (ln)", -2.18],
  ["CACUAGCAAUAUUACGGGCA", "self-splicing fitness (ln)", -1.91],
  ["CCGCAGCAAUAUUACGUUGC", "self-splicing fitness (ln)", -3.32],
  ["ACGUAGCAAUAUUACGUGGG", "self-splicing fitness (ln)", -3.6],
  ["AUUUAGCAAUAUUACGGCCG", "self-splicing fitness (ln)", -1.29],
  ["GUGAAGCAAUAUUACGAACG", "self-splicing fitness (ln)", -1.57],
  ["CUCUAGCAAUAUUACGAUGG", "self-splicing fitness (ln)", -3.61],
  ["UUUCAGCAAUAUUACGGCAA", "self-splicing fitness (ln)", -0.476],
  ["ACACAGCAAUAUUACGCCGG", "self-splicing fitness (ln)", -1.36],
  ["CUAGAGCAAUAUUACGACCU", "self-splicing fitness (ln)", -3.67],
  ["UUACAGCAAUAUUACGCUCA", "self-splicing fitness (ln)", -0.512],
  ["UAGAAGCAAUAUUACGCGAA", "self-splicing fitness (ln)", -1.61],
  ["AAAUAGCAAUAUUACGCCUG", "self-splicing fitness (ln)", -0.3],
  ["CGGCAGCAAUAUUACGCGUA", "self-splicing fitness (ln)", -1.97],
  ["AGUUAGCAAUAUUACGAGCG", "self-splicing fitness (ln)", -0.12],
  ["CAGAAGCAAUAUUACGCCUU", "self-splicing fitness (ln)", -1.78],
  ["AGGAAGCAAUAUUACGAUAC", "self-splicing fitness (ln)", -3.27],
  ["UGGUAGCAAUAUUACGAACA", "self-splicing fitness (ln)", -0.325],
  ["GGAGAGCAAUAUUACGGGUA", "self-splicing fitness (ln)", -3.5],
  ["AUUAAGCAAUAUUACGGCGG", "self-splicing fitness (ln)", -1.18],
  ["ACGGAGCAAUAUUACGCAUU", "self-splicing fitness (ln)", -3.43],
  ["CUCAAGCAAUAUUACGAGUC", "self-splicing fitness (ln)", -3.49],
  ["AGACAGCAAUAUUACGAUGA", "self-splicing fitness (ln)", -2.02],
  ["GAUCAGCAAUAUUACGCAUG", "self-splicing fitness (ln)", -0.141],
  ["AUAGAGCAAUAUUACGAUAC", "self-splicing fitness (ln)", -0.998],
  ["AUGGAGCAAUAUUACGUCAA", "self-splicing fitness (ln)", -1.77],
  ["GAAGAGCAAUAUUACGACUC", "self-splicing fitness (ln)", -0.32]
]}
